EXPERIMENTAL_PROTOCOL: Cytotoxicity Determination (CCK-8, without addition of virus)
Assay type: cell-based
SETUP_CONDITIONS: human, 50% cytotoxicity concentration (CC50)
Experimental: CPE reduction assays are performed as described by Sidwell and Huffman et al., Appl. Microbiol. (1971) 22(5):797-801 with slight modifications. HEp-2 cells (ATCC #, CCL-23) are seeded at a density of 1,500 cells/30 μl/well into the 384-well cell plate(s) (Corning #3701) one day prior to the assay. Compounds are added into 384-well cell plates by Labcyte POD 810 Plate Assembler system. […] Place on ice until ready to use. […]
Items are presented alongside their recorded CC50 at 5 days.

Field: example entries. Status: answers known.
COc1cc(C(=O)NCC(O)(c2cc(C(C)(N)CO)cc(-c3ccc(F)cc3)n2)C(F)(F)F)ccc1OCCO (stereo not shown) ... > 100 µM
COc1cc(C(=O)NCC(O)(c2cc(C(C)(C)N)cc(-c3ccc(F)c(Cl)c3)n2)C(F)(F)F)ccc1OCC(=O)O (stereo not shown) ... 10 to 100 µM
COc1cc(C(=O)NCC(O)(c2cc(C(C)(C)N)cc(-c3ccc(F)cc3)n2)C2CC2)ccc1OCCO (stereo not shown) ... > 100 µM

Could you now look at the following compound, please?
Prompt: Quick one: CC50 at 5 days of COc1cc(C(=O)NCC(O)(c2ccc(OC)c(-c3ccc(F)c(Cl)c3)n2)C(F)(F)F)ccc1OCC(C)=O (stereo not shown) ?
Response: 10 to 100 µM

The measured values listed here are drawn from patent US11021444B2.
